Multi-source literature compilation: pIC50 on Tyrosine-protein phosphatase non-receptor type 1 (Homo sapiens, UniProt P18031).
Give bare numbers, as −log10 of the molar value.

[
  {
    "Molecule": "O=C(O)/C=C/c1ccc(-c2nc(-c3ccc4c(c3)OCO4)[nH]c2-c2ccc(/C=C/C(=O)O)cc2)cc1",
    "Measurement Target": "Tyrosine-protein phosphatase non-receptor type 1 (Homo sapiens, UniProt P18031)",
    "Readout Value": 5.82
  },
  {
    "Molecule": "O=C(NCc1cncnc1)c1ccc2sc(C(F)(F)P(=O)(O)O)c(Br)c2c1",
    "Measurement Target": "Tyrosine-protein phosphatase non-receptor type 1 (Homo sapiens, UniProt P18031)",
    "Readout Value": 5.75
  },
  {
    "Molecule": "O=C(NC1CCC(F)(F)C1)c1ccc2sc(C(F)(F)P(=O)(O)O)c(Br)c2c1 (stereo not shown)",
    "Measurement Target": "Tyrosine-protein phosphatase non-receptor type 1 (Homo sapiens, UniProt P18031)",
    "Readout Value": 5.65
  },
  {
    "Molecule": "O=C(NCc1cccnn1)c1cc(Cl)c2sc(C(F)(F)P(=O)(O)O)c(Br)c2c1",
    "Measurement Target": "Tyrosine-protein phosphatase non-receptor type 1 (Homo sapiens, UniProt P18031)",
    "Readout Value": 6.50
  },
  {
    "Molecule": "O=C(NCc1cccnn1)c1cc(OCCCCn2ccnc2)c2sc(C(F)(F)P(=O)(O)O)c(Br)c2c1",
    "Measurement Target": "Tyrosine-protein phosphatase non-receptor type 1 (Homo sapiens, UniProt P18031)",
    "Readout Value": 7.21
  }
]

Each of the following entries comes with a recorded value; kindly state pIC50 for each.
1. NC(=O)c1cc(OCc2ccc([C@H]3CC[C@H](C(F)(F)F)CC3)cc2)c2sc(C(F)(F)P(=O)(O)O)c(Br)c2c1
2. Nc1nc(NCCO)c2c(cc(-c3ccccc3C(F)(F)F)c3c2ccn3CCO)n1
3. CC(C)(NC(=O)c1ccc2sc(C(F)(F)P(=O)(O)O)c(Br)c2c1)c1ncn(-c2ccccc2)n1
4. NC(=O)c1cc(C#CCCS(N)(=O)=O)c2sc(C(F)(F)P(=O)(O)O)c(Br)c2c1

Output:
1: 6.13; 2: 4.95; 3: 5.04; 4: 7.11

Input: Fill in pIC50 for record CC(CC1C=Nc2ccc(F)cc21)NC(=O)c1ccc2sc(C(F)(F)P(=O)(O)O)c(Br)c2c1 (stereo not shown)
Output: 5.56

====

System: Tyrosine-protein phosphatase non-receptor type 1 (Homo sapiens) | Read-out: pIC50 | Origin: multiple publications
pIC50: −log10 of the molar value.

Field: example entries. Status: answers known.
[
  {
    "Compound": "O=C1CN(c2c(O)ccc(C3=CC4CCC3N4)c2F)S(=O)(=O)N1 (centres unmarked)",
    "pIC50": "≥ 6.00"
  },
  {
    "Compound": "O=C1CN(c2c(O)ccc(-c3ccc(NS(=O)(=O)C4CC4)cc3F)c2F)S(=O)(=O)N1",
    "pIC50": "≥ 6.00"
  },
  {
    "Compound": "Cc1ccc(-c2ccc(O)c(N3CC(=O)NS3(=O)=O)c2F)o1",
    "pIC50": "≥ 6.00"
  }
]

Can you give me pIC50 for all of these, one by one?
1. O=C1CN(c2c(O)ccc(-c3cnn(C4CCCCC4)c3)c2F)S(=O)(=O)N1
2. Cc1c[nH]c(CNC(=O)c2ccc3sc(C(F)(F)P(=O)(O)O)c(Br)c3c2)c(C)c1=O
3. NC(=O)c1cc(OCC23CC(S(N)(=O)=O)(C2)C3)c2sc(C(F)(F)P(=O)(O)O)c(Br)c2c1
4. Cn1c(=O)c(C#N)cc2cc(N3CC(=O)NS3(=O)=O)c(O)cc21
5. O=C1CN(c2c(O)ccc(C3CCN(S(=O)(=O)C4CC4)C3)c2F)S(=O)(=O)N1 (centres unmarked)
6. CCc1csc([C@H](Cc2ccc(NS(=O)(=O)O)cc2)NC(=O)CCc2ccccc2OC)n1
7. COc1ccc(-c2ccc(O)c(N3CC(=O)NS3(=O)=O)c2F)cn1
8. O=C1CN(c2cc3nc(NCCc4ccccc4)ccc3cc2O)S(=O)(=O)N1

Output:
1: ≥ 6.00; 2: 5.65; 3: 8.34; 4: < 5.00; 5: ≥ 6.00; 6: 4.77; 7: ≥ 6.00; 8: ≥ 6.00

For every item below, please supply its pIC50.
1. CC1(N)CCN(c2cc(-c3ccc(O)c(N4CC(=O)NS4(=O)=O)c3F)[nH]n2)C1 (centres unmarked)
2. CC(C)(C)n1cc(-c2ccc(O)c(N3CC(=O)NS3(=O)=O)c2F)cn1

Output:
≥ 6.00
≥ 6.00

Quick one: give me pIC50 for each item below, same order please.
1. Cc1ccc(-c2ccc(O[C@H](Cc3ccccc3)C(=O)O)cc2)n1Cc1cccc(Oc2ccccc2)c1
2. N#Cc1cc(-c2ccc(O)c(N3CC(=O)NS3(=O)=O)c2F)[nH]n1

Output:
[6.51, "≥ 6.00"]

Each of the following entries comes with a recorded value; kindly state pIC50 for each.
1. O=C1CN(c2c(O)ccc(-c3cn(C4CCC4)cn3)c2F)S(=O)(=O)N1
2. CCCCCCCCCCCCCn1c(C)ccc1-c1ccc(O[C@H](Cc2ccccc2)C(=O)O)cc1

Output:
["≥ 6.00", 6.77]
